Give melting point for every item shown.

Some compounds with recorded melting point:
FC(F)(F)c1ccc2c(N3CCN(C(=S)Nc4c(Cl)cc(Cl)cc4Cl)CC3)ccnc2c1; 112 to 114 °C
FC(F)(F)c1ccc2c(N3CCN(C(=S)NCCN4CCOCC4)CC3)ccnc2c1; 134 to 135 °C
O=C(Nc1c(Cl)cc(Cl)cc1Cl)N1CCN(c2ccnc3cc(C(F)(F)F)ccc23)CC1; 142 to 143 °C
O=C(NC1CCCCC1)N1CCN(c2ccnc3cc(Cl)ccc23)CC1; 112 to 113 °C
FC(F)(F)c1ccc(NC(=S)N2CCN(c3ccnc4cc(C(F)(F)F)ccc34)CC2)cc1; 123 to 124 °C

Parameter requested: melting point. Apply to each item below.
1. S=C(Nc1ccccc1)N1CCN(c2ccnc3cc(Cl)ccc23)CC1
2. Cc1ccc(C)c(NC(=O)N2CCN(c3ccnc4cc(Cl)ccc34)CC2)c1
3. O=C(Nc1ccccc1)N1CCN(c2ccnc3cc(Cl)ccc23)CC1
4. O=C(Nc1c(Cl)cc(Cl)cc1Cl)N1CCN(c2ccnc3cc(Cl)ccc23)CC1
5. S=C(Nc1c(Cl)cc(Cl)cc1Cl)N1CCN(c2ccnc3cc(Cl)ccc23)CC1

Marked response:
171 to 172 °C
118 to 119 °C
142 to 143 °C
168 to 169 °C
132 to 133 °C

---

Tested on: MDA-MB468
Experiment: SRB antiproliferative assay, MDA-MB468
Assay type: cell-based, human
Conditions: Homo sapiens, MDA-MB-468, 48 h, SRB, 48 h incubation, MDA-MB468 breast cancer cells; read-out: GI50 MDA-MB468
// thresholds for GI50 classes: group 1 (below 10 µM), group 2 (10 µM to below 20 µM), group 3 (20 µM or more)

Below are worked cases with known answers.
O=C(Nc1ccc(C(F)(F)F)cc1)N1CCN(c2ccnc3cc(C(F)(F)F)ccc23)CC1; group 1
Cc1cccc(C)c1NC(=S)N1CCN(c2ccnc3cc(Cl)ccc23)CC1; group 1

Exam item: Assign a category based on measured GI50 for "FC(F)(F)c1ccc2c(N3CCN(C(=S)Nc4ccc(Cl)cc4)CC3)ccnc2c1" and give only the class name.
Marked response: group 2

Exam item: "Cc1cccc(C)c1NC(=S)N1CCN(c2ccnc3cc(C(F)(F)F)ccc23)CC1" , same question.
Marked response: group 2

Exam item: "O=C(NC1CCCCC1)N1CCN(c2ccnc3cc(Cl)ccc23)CC1" , same question.
Marked response: group 2

Exam item: "FC(F)(F)c1ccc2c(N3CCN(C(=S)Nc4cccc5ccccc45)CC3)ccnc2c1" , same question.
Marked response: group 1

Exam item: "Cc1ccc(C)c(NC(=O)N2CCN(c3ccnc4cc(Cl)ccc34)CC2)c1" , same question.
Marked response: group 3

Exam item: "FC(F)(F)c1ccc2c(N3CCN(C(=S)Nc4c(Cl)cc(Cl)cc4Cl)CC3)ccnc2c1" , same question.
Marked response: group 3

Exam item: "FC(F)(F)c1ccc(NC(=S)N2CCN(c3ccnc4cc(Cl)ccc34)CC2)cc1" , same question.
Marked response: group 1

Exam item: "O=C(NC1CCCCC1)N1CCN(c2ccnc3cc(C(F)(F)F)ccc23)CC1" , same question.
Marked response: group 2

Exam item: "O=C(Nc1ccccc1)N1CCN(c2ccnc3cc(Cl)ccc23)CC1" , same question.
Marked response: group 1

Exam item: "FC(F)(F)c1ccc(NC(=S)N2CCN(c3ccnc4cc(C(F)(F)F)ccc34)CC2)cc1" , same question.
Marked response: group 3

Exam item: "O=C(Nc1c(Cl)cc(Cl)cc1Cl)N1CCN(c2ccnc3cc(C(F)(F)F)ccc23)CC1" , same question.
Marked response: group 3

Exam item: "FC(F)(F)c1ccc2c(N3CCN(C(=S)Nc4ccccc4)CC3)ccnc2c1" , same question.
Marked response: group 2

Exam item: "S=C(Nc1c(Cl)cc(Cl)cc1Cl)N1CCN(c2ccnc3cc(Cl)ccc23)CC1" , same question.
Marked response: group 1

Exam item: "Cc1ccc(C)c(NC(=O)N2CCN(c3ccnc4cc(C(F)(F)F)ccc34)CC2)c1" , same question.
Marked response: group 3
